experiment: Thermodynamic solubility of the compound at pH 6.5; format: physicochemical; conditions: buffer, read-out: Therm_solubility
MEASURED ENDPOINT: solubility thermodynamic (µg/mL)
State just the number; it will be interpreted in µg/mL.

I'd like to know its solubility thermodynamic. The compound in question is `O=C(O)c1ccc(NC(=O)[C@H](CC2CCCC2)n2cnc(C(F)(F)F)c2)nc1`
4200

----------
test: Volume of distribution at steady state in monkey at 0.5 mg/kg, iv; format: ADME, organism-based, Macaca mulatta; parameters: dose 0.5 mg/kg, route intravenous; details: rhesus monkey, in vivo, read-out: Vdss
MEASURED ENDPOINT: Vd
Quick note: unit goes after the number.

I'd like to know its Vd. The molecule in question is `O=C(O)c1ccc(NC(=O)[C@H](CC2CCCC2)n2cnc(C(F)(F)F)c2)nc1`
0.7 L/kg

----------
assay: Oral bioavailability in dog at 5 mg/kg; type: ADME, organism-based, Canis lupus familiaris; conditions: in vivo
MEASURED ENDPOINT: bioavailability (%)
State just the number; it will be interpreted in %.

I'd like to know its bioavailability. The compound in question is `O=C(O)c1ccc(NC(=O)[C@H](CC2CCCC2)n2cnc(C(F)(F)F)c2)nc1`
18

----------
assay: Oral bioavailability in monkey at 3 mg/kg; format: ADME, organism-based, Macaca mulatta; settings: rhesus monkey, in vivo
MEASURED ENDPOINT: bioavailability (%)
State just the number; it will be interpreted in %.

I'd like to know its bioavailability. The compound in question is O=C(O)c1ccc(NC(=O)[C@H](CC2CCCC2)n2cnc(C(F)(F)F)c2)nc1 [PF-04991532]
35

----------
assay: Drug excretion in rat bile; type: ADME, tissue-based; settings: read-out: Drug excretion
MEASURED ENDPOINT: dose excreted (%)
State just the number; it will be interpreted in %.

I'd like to know its dose excreted. The compound in question is `O=C(O)c1ccc(NC(=O)[C@H](CC2CCCC2)n2cnc(C(F)(F)F)c2)nc1`
62

----------
assay: Ratio of free drug uptake in brain to plasma of dog at 50 mg/kg, po administered for 4 days measured 4 hrs post last dosing; format: ADME, organism-based, Canis lupus familiaris; parameters: dose 50 mg/kg, route oral; conditions: read-out: BPR
MEASURED ENDPOINT: Kp uu at 4 h
Note: the reply should be a number with no unit written.

I'd like to know its Kp uu at 4 h. The compound in question is O=C(O)c1ccc(NC(=O)[C@H](CC2CCCC2)n2cnc(C(F)(F)F)c2)nc1 [PF-04991532]
0.009

----------
assay: Volume of distribution at steady state in rat at 1 mg/kg, iv; assay type: ADME, organism-based; design: dose 1 mg/kg, route intravenous; conditions: in vivo, read-out: Vdss
MEASURED ENDPOINT: Vd

I'd like to know its Vd. The molecule in question is O=C(O)c1ccc(NC(=O)[C@H](CC2CCCC2)n2cnc(C(F)(F)F)c2)nc1 [PF-04991532]
2 L/kg

----------
assay: Fraction absorbed in portal vein cannulated rat at 5 mg/kg, po; details: in vivo, read-out: Fabs
MEASURED ENDPOINT: Fa (%)
State just the number; it will be interpreted in %.

I'd like to know its Fa. The molecule in question is `O=C(O)c1ccc(NC(=O)[C@H](CC2CCCC2)n2cnc(C(F)(F)F)c2)nc1`
53

Where do the numbers come from? From ChEMBL document CHEMBL2163316.
